Source listed as the domain aggregation screens of Martell et al. (2025).

Test: soluble fraction after stress (log2 fold change); higher = more stays soluble; pooled small domains, quantitative proteomics
Conditions: stress: pH 4
Please go through the items and note down their soluble fraction (log2).
Field format: numeric only.

Ask | Could you tell me which soluble fraction (log2) is on file for HMSLSNMIGKNIQWTHVTKTKDAEGNPKTNSETFAGNVRGVKVLNGKPMVVAQDAKGKLHEVEVSEIEAIA ?
Reply | 0.22

Ask | Follow-up entry: HMKEAISIYPNPVKDILTIRGMDETSGVSFKLYDVTGNLLLESTHSELDMSGLNRGVYFLDIAGDVRKVVK
Reply | -1.07

Ask | Follow-up entry: HMASDLPTVTIMGKTFYTYVAKKGESFFGIANRFGWDPELLVKTNRELETPLDKGALIYYPVPKKPK
Reply | -0.521

Ask | Follow-up entry: HMQGEVVTNRSVIDMSRAGLSADIIRAKILRSDTNFDVTAKALIELKESGVPDDIIALMLERADS
Reply | -0.218

Ask | Follow-up entry: HMHPMVEAYLADLDRALSGSDPREHAETMSAVREHLADAIAPDATAEQVRHALDELGPVEAIAAG
Reply | -0.239

Ask | Follow-up entry: HMARLAGVDLPREKRIEIGLTYIYGIGLARSQEILKKAGINPDIRVKDLTDEQEQAIRNAMDGYIVEGDL
Reply | -0.0746

Ask | Follow-up entry: HMVQIVINKEVQTTSQTILRENAGTSSRNIGYVDPNVKLRATLDRNSFYFIPEKKGWIMKSRVKLIEDLS
Reply | 0.0552

Ask | Follow-up entry: HMLLTASNYFKETKGINFSELPEALQKGHSFVIKSTENGTNWNAYSTSQNIQRVIDAYFSKLDEYLEKNQ
Reply | -0.202

###

Please go through the items and note down their soluble fraction (log2).
Test: soluble fraction after stress (log2 fold change); higher = more stays soluble; pooled small domains, quantitative proteomics
Details: stress: pH 4
Field format: numeric only.

Ask | Could you tell me which soluble fraction (log2) is on file for HMRDSYTFEDIEKLKDSYLQDSEKALEKLISIYEDTNQSLAIRTAALDIITDSQDPTFKLALEKIIS ?
Reply | -0.751

Ask | Follow-up entry: HMRGFTDFEHIEKEYLATIEKLNWPDGVTLPDKLEGEDTGTSFQVGYGDTRASNLWEYSWMK
Reply | -1.15

Ask | Follow-up entry: HMVYVPTKAEVSQQFQDASKARFDERYAIVELADGRRTMAPLAFLTKADHAWLKQLASTSPLPKGK
Reply | 0.0133

Ask | Follow-up entry: HMNMSVGAALRRRRNELGMTLRELADEAELTSGFLSQVENDRVSPSLKSLGRIAEVLRIPLFQLLS
Reply | -0.659

Ask | Follow-up entry: HMTRTISKVAKELAINIETVRFYERRGLIEQPPKPELGYRHYPDETVNRIRFIKRAQELGFTLEEIANLLS
Reply | -1.21

Ask | Follow-up entry: HMLEIRGFTVLLSDRGIVGIIEEIIQNPGQDLLRILSPEKREILVPLHSDLITGINKKKKTITMNLPDGL
Reply | -0.775

Ask | Follow-up entry: HMEPMTDQQILEGFAEFKRQNPDLMNRPATQAIVNLTLPGGTPISFRSGAGAAALNQYLESIGMRAGP
Reply | -0.0242

Ask | Follow-up entry: HMIDFTHEDIERLWNAIVHYVPERQKSDMAIDFIKSLEDIGVEHDEIKASAEYDPKLEEAINTVY
Reply | -0.357

Ask | Follow-up entry: HMQPNVTRERILAAAMTVFAQKGWQKTSLDEVAAAAGMTKGAIYWHFRNKNDLFFALLDARLQRD
Reply | -1.08

Ask | Follow-up entry: HMDFGHWAAHKLEQMSEYRLRHGEAVAIGIALDVLYSVRQGLLARPAAERILSLLERLGFTLFDPELKS
Reply | -0.291

Ask | Follow-up entry: HMYDRIKLLKLREKRGLTQYELAEKAGISVVTLNKIETSDMAKPFASTLKKIALALGVGIEELS
Reply | 0.22

Ask | Follow-up entry: HMQRDTIAISAIPTAIKTYLSSTYPTDTLVHAFVNKDQSIVVISKNIDFYATSFSTANAFIKRIQLPA
Reply | 0.156

Ask | Follow-up entry: HMSHGNAALTPRQRLRLARLVVDDQWSVSAAAEFFRVSYPTAAKWARRYVELGPAGMADRSS
Reply | -0.0854

Ask | Follow-up entry: HMGAEIRDKVRAALAGLNPRAAEIFVMRYFDGYGNREIARLLNTSWSTIAVTLHRTRAKLQKELK
Reply | 0.0552

Ask | Follow-up entry: HMIIIMKKSATNSEVRKVIERAEKEGLTVQVNQLEKQQVLGLVGDTRLIQDVAFLRYEGVENVERI
Reply | 0.206

Ask | Follow-up entry: HMDANLGEIFKVYEQEIGALTPFVREEMLDAIDHYPRDWILDAIRESAKSNARNWKYTLAILKRWKAEG
Reply | -0.507

Ask | Follow-up entry: HMENLFPDYTMQDYRIVRSELSSKFKVQTVPVTTATATENKIVRQEPEAGSRITEGMTVILYYSIGPE
Reply | 0.0963
